# reported log10 Ki; entries follow
Molecular target: peripheral CCK receptors (pancreas) (Rattus norvegicus)
Construct: Whole pancreas glands from male Wistar rats with a body weight of 150-300 g; from tissue; host or cells: whole pancreas glands of male Wistar rats, washed homogenate
Sequence (P30551 whole entry): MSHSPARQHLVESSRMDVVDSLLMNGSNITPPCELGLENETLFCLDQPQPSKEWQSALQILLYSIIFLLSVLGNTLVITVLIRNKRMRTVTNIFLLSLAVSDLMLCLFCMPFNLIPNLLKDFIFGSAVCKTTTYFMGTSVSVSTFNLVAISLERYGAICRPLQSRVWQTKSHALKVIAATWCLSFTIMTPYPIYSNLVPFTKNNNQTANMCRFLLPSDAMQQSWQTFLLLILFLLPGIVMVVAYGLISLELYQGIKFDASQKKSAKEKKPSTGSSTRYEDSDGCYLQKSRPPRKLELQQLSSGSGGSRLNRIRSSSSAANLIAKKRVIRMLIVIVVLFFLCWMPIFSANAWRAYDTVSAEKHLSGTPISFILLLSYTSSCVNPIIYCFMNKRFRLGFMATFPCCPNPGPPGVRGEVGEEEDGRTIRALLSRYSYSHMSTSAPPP
Assay: peripheral CCK receptor binding affinity on rat pancreas homogenate (inhibition of 3[H]-CCK-8 binding)
Design: species or system rat (male Wistar)
Conditions: 0.3 nM 3[H]-CCK-8, 90 min, 25° C., pH 7.4, calculated from IC50 by Cheng-Prusoff, read-out: In vitro binding to peripheral CCK receptors (pancreas) pKi values (converted)
Base-10 log of Ki, unit nM.

Short answer for CN1C(=O)C(NC(=O)c2cc3cccc4c3n2CCC4)N=C(C2CCCCC2)c2ccccc21 (centres unmarked) : log10 Ki was 0.40

Item: Cc1ccc2c(c1)C(c1ccccc1)=NC(NC(=O)c1cc3cccc4c3n1CCC4)C(=O)N2C (centres unmarked) | log10 Ki: 0.07

Lookup result for COc1ccc2c(c1)N(C)C(=O)C(NC(=O)c1cc3cccc4c3n1CCC4)N=C2c1ccccc1 (centres unmarked) [Example 1] ; measured log10 Ki: 0.13

Entry Cc1ccc(C2=NC(NC(=O)c3cc4cccc5c4n3CCC5)C(=O)N(C)c3ccccc32)cc1 (centres unmarked) — recorded log10 Ki = 0.37

Reported log10 Ki for CN1C(=O)C(NC(=O)c2cc3cccc4c3n2CCC4)N=C(c2ccccc2F)c2ccccc21 (centres unmarked) was -0.04

log10 Ki recorded for this compound, CN1C(=O)C(NC(=O)c2cc3cccc4c3n2CCC4)N=C(c2ccccc2)c2ccccc21 (centres unmarked) , is 0.51

Lab note: COc1ccc2c(c1)N(C)C(=O)C(NC(=O)c1cc3cccc4c3n1CCC4)N=C2c1c(F)cccc1OCCC(C)C (centres unmarked) gave log10 Ki of 1.00

Record COc1ccc2c(c1)N(C)C(=O)C(NC(=O)c1cc3cccc4c3n1CCC4)N=C2c1ccccc1 (single isomer, unassigned; (-)) [Example 2a] . Reported log10 Ki: -0.59

Briefly, log10 Ki measured for CN1C(=O)C(NC(=O)c2cc3cc(F)cc4c3n2CCC4)N=C(c2ccccc2)c2cc(Cl)ccc21 (centres unmarked) : 0.79

Sample COc1ccc2c(c1)N(C)C(=O)C(NC(=O)c1cc3cccc4c3n1CCC4)N=C2c1ccccc1F (centres unmarked) ; log10 Ki observed: -0.10

Looking up Cc1ccc2c(c1)C(c1cccs1)=NC(NC(=O)c1cc3cccc4c3n1CCC4)C(=O)N2C (centres unmarked) , I see its log10 Ki listed as 0.96

Consider CN1C(=O)C(NC(=O)c2cc3cccc4c3n2CCC4)N=C(c2ccc(F)cc2F)c2ccccc21 (centres unmarked) . Its measured log10 Ki is 0.38

log10 Ki in this record for CN1C(=O)C(NC(=O)c2cc3cc(F)cc4c3n2CCC4)N=C(c2ccccc2)c2ccccc21 (centres unmarked) : 0.16

log10 Ki reading for CN1C(=O)C(NC(=O)c2cc3cccc4c3n2CCC4)N=C(c2c(F)cccc2F)c2ccccc21 (centres unmarked) : -0.07

Taken from patent US5010076A.
